# Tested on: SNB-19
# assay name: NCI tumour cell line growth inhibition, 48 h
Activity calls are given as the source filed them. Rule as the data show it: active = GI50 up to about 1.1 µM and inactive = higher.
Reported values of GI50 for individual entries
observation type: GI50

[[record]]
molecule = "CCOc1cc2ccc3c4cc(OC)c(OC)cc4cnc3c2cc1OCC"
result = "> 100 µM (inactive)"

[[record]]
molecule = "CCCCC1(N=[N+]=[N-])C(=O)C2C=CC=C3c4ccccc4N(C1=O)C32 (configuration not stated)"
result = "22.1 µM (inactive)"

[[record]]
molecule = "CC(C)N(C(=O)C12C3C4C5C3C1(C(=O)N(C(C)C)C(C)C)C5(C#N)C42)C(C)C (configuration not stated)"
result = "> 100 µM (inactive)"

[[record]]
molecule = "O=c1[nH]nc(Cn2c3ccc(Br)cc3c3nc4ccccc4nc32)n1C1CCCCC1"
result = "> 100 µM (inactive)"

[[record]]
molecule = "COc1cc(O)c2c(=O)cc(C3(OC(C)=O)C=CC(OC4OC(CO)C(O)C(O)C4O)C=C3)oc2c1 (configuration not stated)"
result = "> 100 µM (inactive)"

[[record]]
molecule = "Cc1ccc(-n2cc(-c3ccc(Cl)cc3)c3c2N=CN2N=C(c4cccs4)NC32)cc1 (configuration not stated)"
result = "17.9 µM (inactive)"

[[record]]
molecule = "CN(C)c1ccc(/C=C/C(=O)N[C@@H]2C(=O)N3[C@@H]2SC(C)(C)[C@@H]3C(=O)O)cc1"
result = "> 100 µM (inactive)"

[[record]]
molecule = "CCN(CC)CCOc1ccc(N2Cc3ccccc3C2=O)cc1"
result = "> 10 µM (inactive)"

[[record]]
molecule = "COc1ccc(N)c(C(O)CCNC(C)=O)c1 (configuration not stated)"
result = "> 100 µM (inactive)"

[[record]]
molecule = "[N-]=[N+]=CC(=O)OCC1SCCCS1"
result = "> 100 µM (inactive)"

[[record]]
molecule = "CC/C=C/c1cc2c(cc1O)CCC1C2CC[C@@]2(C)C1CC[C@@H]2O (some centres not stated)"
result = "2.6 µM (inactive)"

[[record]]
molecule = "O=C(O)CCCn1nnc2c(=O)[nH][nH]c(=O)c21"
result = "> 100 µM (inactive)"

[[record]]
molecule = "[O-][S+](Nc1ccccc1)c1cccc(Cl)c1 (configuration not stated)"
result = "> 100 µM (inactive)"

[[record]]
molecule = "O=C(O)C12C3C4C1C1C2C3C1(Br)C41OCCO1 (configuration not stated)"
result = "> 100 µM (inactive)"

[[record]]
molecule = "COc1cc(Cc2nccc3cc(OC)c(OC)cc23)c(C(C)=O)cc1OC"
result = "300 µM (inactive)"

[[record]]
molecule = "COc1ccc2nc(NC(=O)C(=O)C(C#N)c3ccc([N+](=O)[O-])cc3)sc2c1 (configuration not stated)"
result = "> 100 µM (inactive)"

[[record]]
molecule = "C/C(=C\\c1ccc2c(c1)OCO2)[N+](=O)[O-]"
result = "2.49 µM (inactive)"

[[record]]
molecule = "CC(=O)OC(CN1CCN(c2ccccn2)CC1)Cn1sc2nc(C)cc(C)c2c1=O (configuration not stated)"
result = "> 100 µM (inactive)"

[[record]]
molecule = "CCOC(=O)c1c(O)nc(O)c(CC)c1C"
result = "> 100 µM (inactive)"

[[record]]
molecule = "N=C(N)N/N=C/c1c(-c2ccc(Cl)cc2)nc2sc(Cl)cn12"
result = "1.86 µM (inactive)"

[[record]]
molecule = "NC(Cc1ccccc1)c1nccs1 (configuration not stated)"
result = "> 100 µM (inactive)"

[[record]]
molecule = "CC(=O)N(C)c1ccc(/N=C/N(C)C)cc1"
result = "> 100 µM (inactive)"

